- Test system: Plasmodium falciparum
- protocolDescription: Antimalarial activity after 72hrs against chloroquine-sensitive Plasmodium falciparum 3D7 infected erythrocytes
- Type: functional, organism-based
- settings: 3D7, 72 h
testReadout: IC50 (µg/mL)

[[record]]
structuresmilesstring = "Fc1ccccc1Nc1nc(N2CCCCC2)nc(N2CCN(CCNc3ccnc4cc(Cl)ccc34)CC2)n1"
targetdesc = "Plasmodium falciparum"
reportedmeasurement = 0.159

[[record]]
structuresmilesstring = "Clc1ccc2c(NCCN3CCN(c4nc(N5CCCCC5)nc(N5CCCCC5)n4)CC3)ccnc2c1"
targetdesc = "Plasmodium falciparum"
reportedmeasurement = 0.0444

[[record]]
structuresmilesstring = "Fc1ccc(Nc2nc(NC3CCCCC3)nc(N3CCN(CCNc4ccnc5cc(Cl)ccc45)CC3)n2)cc1"
targetdesc = "Plasmodium falciparum"
reportedmeasurement = 0.00783

[[record]]
structuresmilesstring = "CCN1CCN(c2nc(Nc3ccccc3)nc(N3CCN(CCNc4ccnc5cc(Cl)ccc45)CC3)n2)CC1"
targetdesc = "Plasmodium falciparum"
reportedmeasurement = 0.038

[[record]]
structuresmilesstring = "Cc1ccccc1Nc1nc(Nc2ccccc2C)nc(N2CCN(CCNc3ccnc4cc(Cl)ccc34)CC2)n1"
targetdesc = "Plasmodium falciparum"
reportedmeasurement = 0.186

[[record]]
structuresmilesstring = "Cc1ccc(Nc2nc(N3CCOCC3)nc(N3CCN(CCNc4ccnc5cc(Cl)ccc45)CC3)n2)cc1"
targetdesc = "Plasmodium falciparum"
reportedmeasurement = 0.0435

[[record]]
structuresmilesstring = "Clc1ccc2c(NCCN3CCN(c4nc(Nc5ccccc5)nc(NC5CCCCC5)n4)CC3)ccnc2c1"
targetdesc = "Plasmodium falciparum"
reportedmeasurement = 0.0162

